Test system: CCRIS mutagenicity, Ames/micronucleus/aberration tests
Experiment: CCRIS mutagenicity studies
Conditions: Test System: AMES SALMONELLA TYPHIMURIUM; Strain/Indicator: TA102; Metabolic Activation: NONE; Method: STANDARD PLATE
Text: The CCRIS database contains chemical records with carcinogenicity, mutagenicity, tumor promotion, and tumor inhibition test results. It was developed by the National Cancer Institute (NCI). Data are derived from studies cited in primary journals, current awareness tools, NCI reports, and other sources. Test results have been reviewed by experts in carcinogenesis and mutagenesis. CCRIS provides historical information from the years 1985 - 2011. It is no longer updated. […]
The source made the active and inactive calls. The rule behind the calls is not given here.
Outcome field: choose from True (active), False (inactive)

>>> answer_label("Clc1cnc(Oc2ccc(Oc3ncc(Cl)cc3Cl)cc2)c(Cl)c1")
"False"

Short answer needed: outcome of this test for CCCCCCC(O)CCCCCCCCCCC(=O)O (stereo not given) ?
False

Record request — test call for C=C1CC/C=C(/C)CC[C@@H]2[C@@H]1CC2(C)C
False

Please share the test call associated with Cc1c2ccncc2c(C)c2c1[nH]c1ccccc12 .
True

What call does the record list for CC(C)=CCCC(C)CC=O (stereo not given) ?
False

====

System: CCRIS mutagenicity, Ames/micronucleus/aberration tests
Experiment: CCRIS mutagenicity studies
Conditions: Test System: AMES SALMONELLA TYPHIMURIUM; Strain/Indicator: TA1535; Metabolic Activation: HAMSTER, LIVER, S-9, AROCLOR 1254 (30%); Method: PREINCUBATION
The source made the active and inactive calls. No rule for the calls is given here.
// classify into active, inactive

>>> answer_label("C=CC(=O)OC")
"inactive"

Field: outcome | Entry: COc1ccc(N=[N+]([O-])c2ccc(OC)cc2)cc1
inactive

Called result for S=c1nc[nH]c2nc[nH]c12
active

Per the records of this test, what outcome belongs to CCCCCCCCCCCCCCCCCC[N+](C)(C)Cc1ccccc1 ?
inactive

// param item: CCOP(=O)(NC(C)C)Oc1ccc(SC)c(C)c1 (stereo not given) ; yields the recorded call
inactive

How was CC(CCl)OP(=O)(OC(C)CCl)OC(C)CCl (stereo not given) classified in this test?
inactive

For this compound, state the assay outcome: C=CC(=O)OCCCCCCOC(=O)C=C
inactive

====

Test system: CCRIS mutagenicity, Ames/micronucleus/aberration tests
Experiment: CCRIS mutagenicity studies
Details: Test System: AMES SALMONELLA TYPHIMURIUM; Strain/Indicator: TA100; Metabolic Activation: NONE; Method: STANDARD PLATE
Source text: The CCRIS database contains chemical records with carcinogenicity, mutagenicity, tumor promotion, and tumor inhibition test results. It was developed by the National Cancer Institute (NCI). Data are derived from studies cited in primary journals, current awareness tools, NCI reports, and other sources. Test results have been reviewed by experts in carcinogenesis and mutagenesis. CCRIS provides historical information from the years 1985 - 2011. It is no longer updated. […]
The source made the active and inactive calls. The rule behind the calls is not given here.
Write down one outcome, taken from active, inactive

>>> answer_label("Cc1ccc(S(=O)(=O)OCc2ccccc2)cc1")
"inactive"
>>> answer_label("CC(=O)N(O)c1ccc(Cl)c(Cl)c1")
"inactive"
>>> answer_label("O=C1NC(=O)C(c2ccccc2)(c2ccccc2)N1")
"inactive"

How was Nc1ccc2ccccc2c1N=Nc1ccccc1 classified in this test?
inactive

Kindly provide the recorded test outcome for the following compound: C=CC(=O)OCCOC(=O)C=C
inactive

Outcome? ClCc1ccccc1
inactive

====

System: CCRIS mutagenicity, Ames/micronucleus/aberration tests
Test: CCRIS mutagenicity studies
Conditions: Test System: AMES SALMONELLA TYPHIMURIUM; Strain/Indicator: TA98; Metabolic Activation: S-9; Method: STANDARD PLATE
The source made the active and inactive calls. The rule behind the calls is not given here.
Output constraint: value belongs to true for active, false for inactive

>>> answer_label("CCCCNc1snc2ccccc12")
"false"
>>> answer_label("N#Cc1ccc(/C=C\\c2ccc([N+](=O)[O-])cc2)cc1")
"true"
>>> answer_label("O=[N+]([O-])c1ccc(-c2ccccc2)cc1")
"true"
>>> answer_label("Cc1ccc(-c2nc3ccccc3o2)cc1")
"false"
>>> answer_label("CCN(C(=O)CCCCl)c1snc2ccccc12")
"false"

Short answer needed: outcome of this test for Cc1ccc(/C=C/c2ccc([N+](=O)[O-])cc2)cc1 ?
true

Lab log entry: Nc1snc2cc(Cl)ccc12 — outcome as called in the assay?
false

====

System: CCRIS mutagenicity, Ames/micronucleus/aberration tests
Test: CCRIS mutagenicity studies
Settings: Test System: AMES SALMONELLA TYPHIMURIUM; Strain/Indicator: TA97; Metabolic Activation: RAT, LIVER, S-9, PHENOBARBITAL AND 5,6-BENZOFLAVONE; Method: PREINCUBATION
Excerpt: The CCRIS database contains chemical records with carcinogenicity, mutagenicity, tumor promotion, and tumor inhibition test results. It was developed by the National Cancer Institute (NCI). Data are derived from studies cited in primary journals, current awareness tools, NCI reports, and other sources. Test results have been reviewed by experts in carcinogenesis and mutagenesis. CCRIS provides historical information from the years 1985 - 2011. It is no longer updated. […]
Active and inactive are the calls of the source. How the calls were made is not given here.
// one of active, inactive, no free text

Illustrative cases are given below, each with its answer.
>>> answer_label("O=C(O)C(=O)O")
"inactive"
>>> answer_label("CC1=CC(=O)c2c(O)cccc2C1=O")
"active"
>>> answer_label("O=C(O)c1ccccc1C(=O)O")
"inactive"

Pending compound:
For COc1cc(O)c2c(=O)c3cc(O)ccc3oc2c1 , what call appears in the results of this test?
active

====

System: CCRIS mutagenicity, Ames/micronucleus/aberration tests
Assay: CCRIS mutagenicity studies
Conditions: Test System: AMES SALMONELLA TYPHIMURIUM; Strain/Indicator: TA100; Metabolic Activation: RAT, LIVER, S-9; Method: STANDARD PLATE
The source made the active and inactive calls. No rule for the calls is given here.
Write down the outcome that applies. Available outcomes: active, inactive

Observe how each entry below is paired with its result.
>>> answer_label("CCC1(CC(=O)O)OCCc2c1[nH]c1c(C)cccc21 (configuration not stated)")
"inactive"
>>> answer_label("CCCOS(=O)(=O)c1ccccc1")
"active"
>>> answer_label("COCC(O)Cn1cc([N+](=O)[O-])nc1Cl (configuration not stated)")
"active"
>>> answer_label("CC/C=C\\C=C\\CCCCCCOC(C)=O")
"inactive"
>>> answer_label("C/C=C/C=C/CCCCCCCO")
"inactive"
>>> answer_label("Cc1ccc(N=Nc2c(O)ccc3ccccc23)c(S(=O)(=O)O)c1")
"inactive"
>>> answer_label("CN(C)c1ccc(C(=O)c2ccc(N(C)C)cc2)cc1")
"inactive"
>>> answer_label("CN(C)c1ccc(C(=C2C=CC(=[N+](C)C)C=C2)c2ccccc2)cc1")
"inactive"
>>> answer_label("[O]=[Cr](=[O])([OH])[O][Cr](=[O])(=[O])[OH]")
"active"
>>> answer_label("CC(=O)OCc1c(O)c(C(=O)O)c(C)c2c1OC(=O)c1c(C)cc(O)c(C=O)c1O2")
"active"

So what was the verdict on Cc1ncc2c(n1)CCC2 in this test?
inactive

Dear colleague, could you share the recorded outcome for N[C@@H](CS)C(=O)O when you have a moment?
active

====

System: CCRIS mutagenicity, Ames/micronucleus/aberration tests
Experiment: CCRIS mutagenicity studies
Details: Test System: AMES SALMONELLA TYPHIMURIUM; Strain/Indicator: TA98; Metabolic Activation: RAT, LIVER, S-9, KANECHLOR 500; Method: PREINCUBATION
Active and inactive are the calls of the source. No rule for the calls is given here.
Your reply should match one of these outcome classes. 1.0 for active, 0.0 for inactive

Examples with answers:
>>> answer_label("COc1ccccc1[N+](=O)[O-]")
0.0
>>> answer_label("COc1cccc([N+](=O)[O-])c1")
0.0
>>> answer_label("O=C(O)c1ccc(Cl)c([N+](=O)[O-])c1")
0.0
>>> answer_label("O=C(O)c1cc([N+](=O)[O-])cc([N+](=O)[O-])c1")
1.0
>>> answer_label("Nc1ccc([N+](=O)[O-])cc1[N+](=O)[O-]")
1.0
>>> answer_label("O=[N+]([O-])c1ccccc1O")
0.0

Any idea what this test logged for OCC(O)CCl (centres undefined) ?
0.0

Please indicate how the test categorized O=C(Cl)c1ccccc1[N+](=O)[O-] .
1.0

Tell me the assay call for O=C(O)c1ccc([N+](=O)[O-])cc1[N+](=O)[O-] please.
0.0

====

System: CCRIS mutagenicity, Ames/micronucleus/aberration tests
Experiment: CCRIS mutagenicity studies
Conditions: Test System: AMES SALMONELLA TYPHIMURIUM; Strain/Indicator: TA1537; Metabolic Activation: NONE; Method: PREINCUBATION
Active and inactive are the calls of the source. No rule for the calls is given here.
Outcome (select one): 1 (active), -1 (inactive)

Before answering, review these 5 worked examples.
>>> answer_label("O=C1CN(/N=C/c2ccc([N+](=O)[O-])o2)C(=O)N1")
-1
>>> answer_label("COc1c(C(C)(C)C)cc([N+](=O)[O-])c(C)c1[N+](=O)[O-]")
-1
>>> answer_label("N[C@@H](Cc1c[nH]c2ccccc12)C(=O)O")
-1
>>> answer_label("CN(N)C=O")
-1
>>> answer_label("Oc1c(Br)cc(Br)cc1Br")
-1

Call for entry COc1cc(CCCS(=O)(=O)O)ccc1O[C@H](Cc1cccc(OC)c1O)CS(=O)(=O)O :
-1

Tell me the assay call for O=[N+]([O-])c1ccccc1O please.
-1

// outcome(item) with item = O=C(O)/C=C/c1ccc([N+](=O)[O-])cc1
1

Please let me know the test result on file for CCCCCCCC/C=C/CCCCCCCC(=O)OCCOCC(OCCO)C1OCC(OCCO)C1OCCO (stereo not drawn) .
-1

Per the records of this test, what outcome belongs to CC1CS1 (stereo not drawn) ?
-1

Origin of values: PubChem BioAssay AID1259407
